Target: h-Sortilin (Homo sapiens (Human))
Sequence (Q99523 78-831): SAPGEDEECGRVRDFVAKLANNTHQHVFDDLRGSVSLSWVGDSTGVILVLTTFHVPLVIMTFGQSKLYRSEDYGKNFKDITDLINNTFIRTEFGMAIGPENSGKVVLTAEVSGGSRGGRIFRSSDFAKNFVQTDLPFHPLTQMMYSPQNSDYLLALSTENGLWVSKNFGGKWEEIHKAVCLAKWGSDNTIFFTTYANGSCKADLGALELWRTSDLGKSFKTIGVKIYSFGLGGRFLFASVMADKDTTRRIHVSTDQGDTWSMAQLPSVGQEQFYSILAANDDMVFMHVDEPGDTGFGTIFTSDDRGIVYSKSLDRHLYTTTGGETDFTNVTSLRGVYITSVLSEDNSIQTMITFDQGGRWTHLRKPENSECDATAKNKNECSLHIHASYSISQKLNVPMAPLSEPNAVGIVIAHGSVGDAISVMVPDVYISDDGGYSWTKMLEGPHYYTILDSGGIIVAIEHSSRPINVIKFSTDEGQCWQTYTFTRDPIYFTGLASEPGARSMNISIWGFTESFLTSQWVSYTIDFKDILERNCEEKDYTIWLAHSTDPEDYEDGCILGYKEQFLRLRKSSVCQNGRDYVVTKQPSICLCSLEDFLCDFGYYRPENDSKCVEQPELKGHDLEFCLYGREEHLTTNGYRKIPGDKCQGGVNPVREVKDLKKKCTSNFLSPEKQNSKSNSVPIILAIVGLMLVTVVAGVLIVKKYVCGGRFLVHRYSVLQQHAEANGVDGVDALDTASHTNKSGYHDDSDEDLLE
Assay: Neurotensin (NTS) scintillation proximity assay (SPA): displacement of [3H]-neurotensin binding
Conditions: 150 nM 6his-Sortilin, 5 nM [3H]-Neurotensin; average of at least 2 determinations
Protocol: The exemplified compounds of the invention were tested in a Neurotensin (NTS) scintillation proximity assay (SPA). NTS, which is a 13 amino acid neuropeptide, is a sortilin ligand. […] Compound affinity was determined by measuring the displacement of [^3H]-neurotensin binding to h-Sortilin in SPA format. […] IC50 values were calculated by nonlinear regression using the sigmoid concentration-response (variable slope) using CDD Vault software. […]
pIC50: −log10 of the molar value. Where a name gives a salt, the structure may show the parent alone.
propertyMeasured: pIC50

In the examples that follow, each entry is paired with its recorded pIC50.
INSERT INTO assay_data (compound, testvalue) VALUES
  ('CC(C)(C)CC[C@H](NCc1ccccc1F)C(=O)O', 5.74),
  ('Cn1nccc1CN[C@@H](CCC(C)(C)C)C(=O)O', 5.81),
  ('COc1cc(F)cc(CN[C@@H](CCC(C)(C)C)C(=O)O)c1', 6.26),
  ('CC(C)(C)CC[C@H](NCc1cncc(Br)c1)C(=O)O', 6.22),
  ('CC(C)(C)CC[C@H](NCc1cccc2ccncc12)C(=O)O', 6.02);

1 = Cn1ncc2ccc(CN[C@@H](CCC(C)(C)C)C(=O)O)cc21
2 = C[C@H](N[C@@H](CCC(C)(C)C)C(=O)O)c1ccccc1 [Example 15, hydrochloride]
-- ask Of 1 and 2 , which one carries the higher reported pIC50? # reply format: chosen label
-- reply 1

====

target: h-Sortilin (Homo sapiens (Human)); assay: Neurotensin (NTS) scintillation proximity assay (SPA): displacement of [3H]-neurotensin binding; conditions: 150 nM 6his-Sortilin, 5 nM [3H]-Neurotensin; average of at least 2 determinations
pIC50: −log10 of the molar value.
propertyMeasured: pIC50

INSERT INTO measurements (compound, testvalue) VALUES
  ('Cn1cnc2c(CN[C@@H](CCC(C)(C)C)C(=O)O)cccc21 [Example 138]', 6.13);

a = COc1ccc([C@@H](C)N[C@@H](CCC(C)(C)C)C(=O)O)cc1C [Example 102]
b = COc1cc(C)cc(CN[C@@H](CCC(C)(C)C)C(=O)O)c1 [Example 69]
-- ask Compare a and b and name the one whose reported pIC50 is smaller. # reply format: chosen label
-- reply b

====

molecular target: h-Sortilin (Homo sapiens (Human)); experiment: Neurotensin (NTS) scintillation proximity assay (SPA): displacement of [3H]-neurotensin binding; conditions: 150 nM 6his-Sortilin, 5 nM [3H]-Neurotensin; average of at least 2 determinations
propertyMeasured: IC50 (nM)

In the examples that follow, each entry is paired with its recorded IC50.
INSERT INTO measurements (structuresmilesstring, unitstring, testvalue) VALUES
  ('COc1ccc(F)c(CN[C@@H](CCC(C)(C)C)C(=O)O)c1', 'nM', 850),
  ('Cc1cc(CN[C@@H](CCC(C)(C)C)C(=O)O)ccn1', 'nM', 880),
  ('Cc1ccc(CN[C@@H](CCC(C)(C)C)C(=O)O)cn1', 'nM', 1240);

I = Cc1ccc(CN[C@@H](CCC(C)(C)C)C(=O)O)cc1Cl
II = Cn1ccc2cc(CN[C@@H](CCC(C)(C)C)C(=O)O)cnc21
-- ask Of I and II , which one carries the higher reported IC50? # reply format: chosen label
-- reply II

====

target: h-Sortilin (Homo sapiens (Human)); assay: Neurotensin (NTS) scintillation proximity assay (SPA): displacement of [3H]-neurotensin binding; details: 150 nM 6his-Sortilin, 5 nM [3H]-Neurotensin; average of at least 2 determinations; HCl
Structures can show the parent of a compound that is named as a salt.
propertyMeasured: IC50 (nM)
# number only, unit nM dropped from output

INSERT INTO measurements (compound, assayedtarget, testvalue) VALUES
  ('CC(N[C@@H](CCC(C)(C)C)C(=O)O)c1cncnc1 (some centres unmarked) [Example 141, HCl]', 'h-Sortilin (Homo sapiens (Human))', 640);

Read the next record carefully.
-- ask Item under review: CC(N[C@@H](CCC(C)(C)C)C(=O)O)c1cncnc1 (some centres unmarked) [Example 143, HCl] . Reported IC50?
-- reply 890

====

experiment: Brain homogenate binding by rapid equilibrium dialysis; format: in vitro ADME; conditions: CD1, pH 7.4, mouse brain homogenate, 37° C., dilution factor 5, read-out: Mouse Brain Unbound (Fu, %)
Structures can show the parent of a compound that is named as a salt.
propertyMeasured: fraction unbound at 4 h, 5 μM

INSERT INTO results (compound, testvalue) VALUES
  ('Cn1ccc2c(CN[C@@H](CCC(C)(C)C)C(=O)O)cccc21 [Example 6, hydrochloride]', 0.229),
  ('COc1cccc(CN[C@@H](CCC(C)(C)C)C(=O)O)c1.Cl', 0.291);

====

target: UniProtKB Q99523; experiment: Creoptix (GCI) binding kinetics, human Sortilin; details: Free acid, screened at 1 μM
propertyMeasured: Kd (nM)

In the examples that follow, each entry is paired with its recorded Kd.
INSERT INTO measurements (structuresmilesstring, propertymeasured, unitstring, testvalue) VALUES
  ('COc1cc(CN[C@@H](CCC(C)(C)C)C(=O)O)ccc1C', 'Kd', 'nM', 242),
  ('COc1cc(F)cc(CN[C@@H](CCC(C)(C)C)C(=O)O)c1', 'Kd', 'nM', 571),
  ('Cc1ccc(CN[C@@H](CCC(C)(C)C)C(=O)O)cc1C', 'Kd', 'nM', 208),
  ('COc1cccc([C@@H](N[C@@H](CCC(C)(C)C)C(=O)O)C(F)(F)F)c1', 'Kd', 'nM', 4020),
  ('COc1cc(C)cc(CN[C@@H](CCC(C)(C)C)C(=O)O)c1', 'Kd', 'nM', 2760);

1 = COc1cccc([C@H](N[C@@H](CCC(C)(C)C)C(=O)O)C(F)F)c1
2 = CC(C)(C)CC[C@H](NCc1cnc2cccnc2c1)C(=O)O
3 = COc1cc(CN[C@@H](CCC(C)(C)C)C(=O)O)ccc1F
4 = COc1ccc(F)c(CN[C@@H](CCC(C)(C)C)C(=O)O)c1
5 = COc1cccc([C@@H](N[C@@H](CCC(C)(C)C)C(=O)O)C(F)F)c1
-- ask Arrange items by their Kd values in increasing order. Use the labels to give the requested order.
-- reply 2, 1, 4, 3, 5
(2: 83.2 nM, 1: 284 nM, 4: 456 nM, 3: 3390 nM, 5: 5960 nM)

====

molecular target: UniProt:Q99523; experiment: Neurotensin (NTS) scintillation proximity assay (SPA): displacement of [3H]-neurotensin binding; details: 150 nM 6his-Sortilin, 5 nM [3H]-Neurotensin; average of at least 2 determinations
pIC50: −log10 of the molar value. Where a name gives a salt, the structure may show the parent alone.
propertyMeasured: pIC50

INSERT INTO assay_data (compound, testvalue) VALUES
  ('Cn1ccc2c(CN[C@@H](CCC(C)(C)C)C(=O)O)cccc21 [Example 6, hydrochloride]', 6.48),
  ('COc1cccc([C@H](N[C@@H](CCC(C)(C)C)C(=O)O)C(F)F)c1 [Example 21]', 6.57),
  ('COc1ccc([C@@H](N[C@@H](CCC(C)(C)C)C(=O)O)C(F)(F)F)cc1OC [Example 115]', 6.38),
  ('COc1cccc([C@@H](N[C@@H](CCC(C)(C)C)C(=O)O)C(F)F)c1 [Example 22]', 6.59),
  ('COc1cc(Br)cc(CN[C@@H](CCC(C)(C)C)C(=O)O)c1 [Example 31]', 6.28),
  ('CC(C)(C)CC[C@H](N[C@@H](c1ccccc1)C(F)(F)F)C(=O)O [Example 16]', 5.83);

a = COc1ccc(CN[C@@H](CCC(C)(C)C)C(=O)O)cc1O [Example 91]
b = Cc1cncc(CN[C@@H](CCC(C)(C)C)C(=O)O)c1 [Example 95]
-- ask Of a and b , which one carries the higher reported pIC50? # reply format: chosen label
-- reply a
(a: 6.41, b: 6.16)

====

target: h-Sortilin (Homo sapiens (Human)); experiment: Neurotensin (NTS) scintillation proximity assay (SPA): displacement of [3H]-neurotensin binding; conditions: 150 nM 6his-Sortilin, 5 nM [3H]-Neurotensin; average of at least 2 determinations
Counter-ions that a name gives are not always drawn.
propertyMeasured: IC50 (nM)

INSERT INTO measurements (molecule, propertymeasured, testvalue) VALUES
  ('CC(C)(C)CC[C@H](NCc1cccc2[nH]ncc12)C(=O)O', 'IC50', 1320),
  ('CC(C)(C)CC[C@H](NCc1ccccc1)C(=O)O [Example 3, hydrochloride]', 'IC50', 766),
  ('Cc1nc2cc(CN[C@@H](CCC(C)(C)C)C(=O)O)ccc2s1', 'IC50', 380),
  ('COc1ccc([C@H](C)N[C@@H](CCC(C)(C)C)C(=O)O)cc1OC', 'IC50', 370),
  ('COc1cncc(CN[C@@H](CCC(C)(C)C)C(=O)O)c1 [Example 86]', 'IC50', 790);

I = COc1cc(CN[C@@H](CCC(C)(C)C)C(=O)O)ccn1
II = CC(C)(C)CC[C@H](NCc1cncc2ccccc12)C(=O)O
III = CC(C)(C)CC[C@H](NCc1ccccc1-c1ccncc1)C(=O)O
-- ask Arrange items by their IC50 values in increasing order. Use the labels to give the requested order.
-- reply I, II, III

a = COc1ccc(CN[C@@H](CCC(C)(C)C)C(=O)O)cc1
b = CC(C)(C)CC[C@H](NCc1ccccc1CO)C(=O)O [Example 59, hydrochloride]
c = CC(C)(C)CC[C@H](NCc1cnc2[nH]ccc2c1)C(=O)O
d = COc1ccc([C@H](N[C@@H](CCC(C)(C)C)C(=O)O)C(F)F)cc1OC
-- ask Arrange items by their IC50 values in increasing order. Use the labels to give the requested order.
-- reply d, c, a, b

P = CC(C)(C)CC[C@H](NCc1cccc2ncccc12)C(=O)O
Q = CC(C)(C)CC[C@H](N[C@@H](c1ccccc1)C(F)F)C(=O)O
-- ask Of P and Q , which one carries the higher reported IC50? # reply format: chosen label
-- reply Q

a = CC(C)(C)CC[C@H](NCc1ccncc1)C(=O)O
b = COc1ccc2ccccc2c1CN[C@@H](CCC(C)(C)C)C(=O)O
-- ask Compare a and b and name the one whose reported IC50 is smaller. # reply format: chosen label
-- reply a
(a: 810 nM, b: 1990 nM)
